- Assay target: MCL-1 (Homo sapiens (Human))
- Sequence (Q07820 whole entry): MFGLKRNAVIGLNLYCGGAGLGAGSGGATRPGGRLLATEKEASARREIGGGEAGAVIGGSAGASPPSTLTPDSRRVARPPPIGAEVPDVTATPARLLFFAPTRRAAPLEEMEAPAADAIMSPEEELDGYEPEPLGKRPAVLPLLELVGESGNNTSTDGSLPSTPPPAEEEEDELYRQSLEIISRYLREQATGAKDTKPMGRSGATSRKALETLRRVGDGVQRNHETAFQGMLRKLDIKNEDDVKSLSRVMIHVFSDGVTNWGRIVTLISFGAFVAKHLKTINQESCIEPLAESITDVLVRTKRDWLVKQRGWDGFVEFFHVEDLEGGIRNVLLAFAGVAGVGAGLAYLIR
- Assay protocol: Cell free Mcl-1:Bim affinity assay (fluorescence polarization competition)
- Assay type: binding
- Stated conditions: 15 nM MCL-1, 5 nM FITC-Bim, 1 hour at room temperature; class symbols; read-out: BIM_Ki
pKi: −log10 of the molar value.
Readout: pKi

>  <Compound>
CCO[C@@H]1CCN(C(=O)O[C@H]2/C=C/COC3(CCC3)C(=O)NS(=O)(=O)c3ccc4c(c3)N(C[C@@H]3CC[C@H]32)C[C@@]2(CCCc3cc(Cl)ccc32)CO4)C1 [Example 228]

>  <Assay target>
MCL-1 (Homo sapiens (Human))

>  <Observed>
> 9.00

$$$$

// switching to the query compound
Enquiry: Quote pKi reported for CCN1C/C=C/[C@H](OC(=O)N(C)C)[C@@H]2CC[C@H]2CN2C[C@@]3(CCCc4cc(Cl)ccc43)COc3ccc(cc32)S(=O)(=O)NC(=O)C1(C)C [Example 210] please.
Return: > 9.00
